Values from PubChem BioAssay (NCI)

GI50 values recorded for T-47D breast

>  <molecule>
COc1ccccc1CNCCCCCCCCCCCCN1C(=O)c2ccc3c4c(ccc(c24)C1=O)C(=O)N(CCCCCCCCCCCCNCc1ccccc1OC)C3=O

>  <GI50>
> 50 µM

$$$$
>  <molecule>
CC(=O)Oc1ccc(/C=N/NC(N)=S)nc1

>  <GI50>
5.39 µM

$$$$
>  <molecule>
O=C(Nc1cccc(-n2cc(-c3ccncc3)c(-c3ccc(O)c(Cl)c3)n2)c1)c1cccc(C(F)(F)F)c1

>  <GI50>
3 µM

$$$$
>  <molecule>
CCC(CC(C)C)Nc1ccc(NC(CC)CC(C)C)cc1 (configuration not stated)

>  <GI50>
12.7 µM

$$$$
>  <molecule>
Nc1ccc2c(c1)c(N)nn2C(=O)Nc1ccc(Cc2ccccc2)cc1

>  <GI50>
5.8 µM

$$$$
>  <molecule>
COc1cc(NC(=O)Nc2cnc(Nc3ccc(N4CCOCC4)cc3)nc2Oc2cccc(OC)c2)cc(OC)c1

>  <GI50>
2.14 µM

$$$$
>  <molecule>
Cc1cc(C(O)CN(C)C)cc2c1ccc1cc(C(C)C)ccc12 (configuration not stated)

>  <GI50>
2.04 µM

$$$$
